# composite z-score values compiled below
Experiment: small-molecule microarray binders of probe aWnt5a, primary screen, biochemical, biotinylated probe, 635/667 nm fluorescence (AID 1113);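 further: score merges 667 nm fluorescence intensity with signal-to-noise per printed feature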
Settings: higher = more signal

>  <entry_smiles>
C=C(COC)C(=O)CC[C@@H](OC(=O)c1cccnc1)c1cccc(OCCO)c1

>  <composite z-score>
-0.0731

$$$$
>  <entry_smiles>
Cc1ccc(F)cc1S(=O)(=O)N[C@@H]1CCN(Cc2ccc3[nH]ccc3c2)C1

>  <composite z-score>
-0.12

$$$$
>  <entry_smiles>
C=CCOC(=O)[C@@H]1[C@H]2C(=O)O[C@H](c3ccccc3)[C@H](c3ccccc3)N2[C@H](c2ccc(OCCOC(=O)[C@H]3C[C@H]4C(=O)NCC(=O)N4[C@H]3c3ccc(O)cc3)cc2)[C@@]12C(=O)Nc1ccc(I)cc12

>  <composite z-score>
-0.0758

$$$$
>  <entry_smiles>
C=CCOC(=O)[C@H]1[C@@H]2C(=O)O[C@@H](c3ccccc3)[C@@H](c3ccccc3)N2[C@@H](c2ccc(OCCOC(=O)[C@@H]3C[C@@H]4C(=O)N[C@@H](CC(C)C)C(=O)N4[C@@H]3c3ccc(O)cc3)cc2)[C@]12C(=O)Nc1ccc(I)cc12

>  <composite z-score>
0.0095

$$$$
>  <entry_smiles>
C=C(COC)/C(=C/C[C@@H](OC(C)=O)c1ccccc1OCCO)c1cc(C(=O)OC)ccc1OC

>  <composite z-score>
-0.1

$$$$
>  <entry_smiles>
COCCCNC(=O)[C@@H]1c2ccccc2C(=O)N(Cc2cc(C(F)(F)F)cc(C(F)(F)F)c2)[C@H]1c1ccc(CO)cc1

>  <composite z-score>
-0.105

$$$$

====

Assay: E. coli DRC41 culture turbidity changes, primary screen, E. coli filamentation inducer project, strain DRC41, OD650, 48 h (AID 1152);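 further: E. coli MC1000 strain DRC41 lacking acrAB efflux pump and sulA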
Conditions: E. coli DRC41 (acrAB sulA), higher = more signal, called active from +8 up or from −8 down
Tick T if z-score is -1 or greater. Tick F if z-score is less than -1.

>  <molecule>
CCCCC(O)C1C=CC2C(=O)NC(=O)C2N1Nc1ccccn1 (configuration not stated)

>  <answer_label>
F

$$$$
>  <molecule>
NC(=O)NCC#Cc1ccc2c(c1)[C@]1(C(=O)N2)[C@H](C(=O)Nc2nc3ccccc3s2)[C@H]2C(=O)O[C@H](c3ccccc3)[C@H](c3ccccc3)N2[C@@H]1c1ccc(OCCO)cc1

>  <answer_label>
T

$$$$
>  <molecule>
CC(C)C[C@@H]1NC(=O)[C@@H]2C[C@H](C(=O)O)[C@H](c3ccc(O)cc3)N2C1=O

>  <answer_label>
T

$$$$
>  <molecule>
CC(C)C[C@@H]1NC(=O)[C@@]23C(=O)N[C@@H](Cc4ccccc4)C2[C@H](C)[C@@]2(C)O[C@H]2C3/C=C/C/C=C\CNC(=O)[C@@H](CC(C)C)NC1=O (some centres not stated)

>  <answer_label>
T

$$$$
>  <molecule>
CCCC[C@@H]1C[C@H]1[C@@H](NC(=O)Cc1ccccc1)c1ccc(Cl)cc1

>  <answer_label>
F

$$$$
>  <molecule>
NCCCC[C@@H]1NC(=O)[C@H]2C[C@@H](C(=O)O)[C@@H](c3cccc(OCCO)c3)N2C1=O

>  <answer_label>
F

$$$$
>  <molecule>
COc1ccc(CCNC(=O)[C@@]2(Sc3ccc(C)cc3)CC(=O)N(C(C)C)[C@@H]2c2ccc(CO)cc2)cc1

>  <answer_label>
T

$$$$
